Provenance of the data: patent US11661422B2

target_or_test_system: catalytic domain (JH1, amino acids 826-1132) of human JAK2 (Homo sapiens (Human), UniProt O60674)
Sequence (O60674 826-1132): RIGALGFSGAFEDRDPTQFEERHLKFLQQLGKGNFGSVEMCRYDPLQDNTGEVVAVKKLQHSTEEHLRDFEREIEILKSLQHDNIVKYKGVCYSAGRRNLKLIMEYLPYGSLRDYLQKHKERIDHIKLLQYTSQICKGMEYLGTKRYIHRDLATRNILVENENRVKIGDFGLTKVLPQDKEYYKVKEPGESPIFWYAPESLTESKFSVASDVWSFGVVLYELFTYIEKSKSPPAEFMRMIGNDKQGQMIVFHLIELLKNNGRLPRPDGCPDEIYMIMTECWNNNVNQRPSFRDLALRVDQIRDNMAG
assay_text: JAK2 LanthaScreen JH1 Binding Assay
condition_parameters: JAK2 JH1 1.5 nM, 50 nM fluorescent tracer, 2 hours at 25° C.; read-out: JH1 BIND IC50
pIC50: −log10 of the molar value. Structures can show the parent of a compound that is named as a salt.
attribute_measured: pIC50

>>> obs_value("CN1C(=O)N(c2ccc(C(=O)O)cc2)Cc2c1cnc1[nH]c(-c3ccc(CN4CCC(S(C)(=O)=O)CC4)cc3)c(C3CC3)c21 [Example 23, trifluoroacetic acid salt]")
"< 5.60"
>>> obs_value("CN1C(=O)N(c2ccc(C(=O)O)cc2)Cc2c1cnc1[nH]c(-c3ccc(CN4CCC(S(C)(=O)=O)CC4)cc3)cc21")
"5.60 to 6.00"
>>> obs_value("COc1ccc(-c2c(C3CC3)[nH]c3ncc4c(c23)CN(c2ccc(C(=O)O)cc2)C(=O)N4C)cc1")
"< 5.60"
>>> obs_value("CS(=O)(=O)C1CCN(Cc2ccc(-c3cc4c5c(cnc4[nH]3)NC(=O)N(C3CCCCC3)C5)cc2)CC1")
"≥ 7.00"
>>> obs_value("CNC(=O)c1ccc(N2Cc3c(cnc4[nH]c(-c5ccc(CN6CCC(S(C)(=O)=O)CC6)cc5)c(-c5ccc(OC)cc5)c34)N(C)C2=O)cc1")
"5.60 to 6.00"
>>> obs_value("CN1C(=O)N(c2ccc(C(=O)O)cc2)Cc2c1cnc1[nH]c(-c3ccc(CN4CCC(S(C)(=O)=O)CC4)cc3)c(C#N)c21 [Example 24, Trifluoroacetic Acid Salt]")
"< 5.60"
>>> obs_value("CN1C(=O)N(c2ccc(C(=O)O)cc2)Cc2c1cnc1[nH]c(-c3ccc(CN4CCC(S(C)(=O)=O)CC4)cc3)c(I)c21 [Example 25, Trifluoroacetic Acid Salt]")
"6.00 to 6.30"
>>> obs_value("CC(=O)NCc1ccc(-c2c(-c3ccc(CN4CCC(S(C)(=O)=O)CC4)cc3)[nH]c3ncc4c(c23)CN(C(C)(C)C)C(=O)N4C)cc1")
"≥ 7.00"
>>> obs_value("CC(C(N)=O)n1cc(-c2ccc(-c3c(-c4ccc(CN5CCC(S(C)(=O)=O)CC5)cc4)[nH]c4ncc5c(c34)CN(C(C)(C)C)C(=O)N5C)cc2)cn1 (racemic) [Example 19, Trifluoroacetic Acid Salt]")
"≥ 7.00"
>>> obs_value("COCCNc1ccc(N2Cc3c(cnc4[nH]c(-c5ccc(CN6CCC(S(C)(=O)=O)CC6)cc5)cc34)N(C)C2=O)cc1")
"6.30 to 7.00"
